The origin of these recorded values is paper PMC11796359.

- Target: the molecule itself
- Procedure text: SEC; Superose 6 Increase 10/300 GL; 50 mM Tris-HCl (pH 8.0), 300 mM NaCl, 10 mM MgCl2; oligomeric state calculated from elution volumes of proteins of known size
Measure: stoichiometry N
The response must contain the number and no unit.

So for Klebsiella pneumoniae UDP-glucose pyrophosphorylase (galU gene product), wild type (enzyme, UniProt A6TAK9 1-300, looked up, UDP-glucose pyrophosphorylase (galU gene product) of K. pneumoniae subsp. pneumoniae type strain DSM 30104 (ATCC 13883, NCTC 9633), cloned from genomic DNA; UniProt entry printed for the AlphaFold query; 34.6 kDa with tag; no cleavage of the tag is described; Also made from pETDuet-1 with the same oligomeric state; also called KpUGP; KpUGP wt; not shown: Strep-tagII, N-terminal, kept) MAALNSKVRKAVIPVAGLGTRMLPATKAIPKEMLPLVDKPLIQYVVNECIAAGITEIVLVTHSSKNSIENHFDTSFELEAMLEKRVKRQLLEEVQSICPPHVTIMQVRQGLAKGLGHAVLCAHPVVGDEPVAVILPDVILDEYESDLSRDNLAEMISRFDETGASQIMVEPVEDVTAYGVVDCKGESLKPGESVPMVGVVEKPKADVAPSNLAVVGRYVLSADIWPLLAKTPPGAGDEIQLTDAIDMLIEKETVEAYHMKGKSHDCGNKLGYMQAFVEYGIRHKTLGDDFKAWLETAVAK , the logged stoichiometry N turned out to be 4.5
